Recorded TGI, one value per entry.
- System: PC-3 prostate
- test: NCI tumour cell line growth inhibition, 48 h

Look over these answered cases.
| molecule | result-value |
| --- | --- |
| COc1ccnc2c1C(=O)c1nc3ccccc3c3ccnc-2c13 | 1.81 µM |
| CCN1c2nc3ccccc3nc2N(CC)c2nc3ccccc3nc21 | > 100 µM |
| CC(=O)Oc1ccccc1-c1cc2ccccc2oc1=O | > 100 µM |
| CCN(CC)/C(Cl)=C(Cl)\C(=C1\Nc2ccc(OC)cc21)[N+](=O)[O-] | > 100 µM |
| COc1ccc(C2C(C#N)=C(N)OC3=C2COc2ccc(F)cc23)cc1OC (centres undefined) | 93.6 µM |
| C/C(=N\Nc1cc(CN2CCCC2)c(-c2ccc(Cl)cc2)nn1)C(=O)O | > 100 µM |
| O=C(O)c1nc(-c2ccccn2)c(-c2ccccn2)nc1C(=O)O | 20.9 µM |
| COc1ccc2c3c1O[C@H]1C(O)CCC4(O)[C@@H](C2)NCC[C@]314 (some centres undefined) | > 100 µM |

Query: Complete the entry with TGI for Cc1c[n+](Cc2ccc3ccccc3c2)cn1Cc1ccc2ccccc2c1
Response: 2.84 µM

Query: Return TGI (reported value) for this molecule: COc1ccc2c(c1)CCc1c-2[nH]c2ccc(OC)cc12
Response: > 100 µM

The measurements presented in this section are drawn from PubChem BioAssay (NCI).
